System: RBL rat mast cells
protocol description: Degranulation of rat mast cells (secreted β-hexosaminidase)
Type: cell-based
run conditions: Mast cell, 0.5 h, Tg depletion, 30 minutes after replenishing Ca2+
measured property: IC50 (µM)
// units = µM; emit number, no label

Entry under review: O=C(Nc1c(F)cccc1Cl)c1cn(CC2CC2)c2ccccc12 [Example 2] . Reported IC50?
1.2

* * *

System: NFAT
protocol description: NFAT activation assay (luciferase reporter, PMA and ionomycin)
Assay type: cell-based
run conditions: Homo sapiens; 10 μM compound; Jurkat cells; 15 nM PMA and 0.5 μM ionomycin; 18 hours; read-out: Activity 10 μM (% inhibition of NFAT luciferase luminescence)
Quick reference for inhibition at 10 µM among some molecules

Some entries whose results are on file:
INSERT INTO assay_data (molecule, measured_property, observed) VALUES
  ('O=C(Nc1ccncc1F)c1nn(CC2CC2)c2c1CCCC2 [Example 25]', 'inhibition at 10 µM', '> 75%'),
  ('O=C(Nc1ccncc1F)c1cn(CC2CC2)c2ncccc12 [Example 5]', 'inhibition at 10 µM', '26 to 50%'),
  ('O=C(Nc1ccncc1F)c1nn(CC2CCC2)c2ccccc12 [Example 10]', 'inhibition at 10 µM', '> 75%'),
  ('CN(C(=O)c1cn(CC2CC2)c2ccccc12)c1ccncc1F [Example 14]', 'inhibition at 10 µM', '< 25%');

inhibition at 10 µM lookup needed for Cc1cnccc1NC(=O)c1cn(CC2CC2)c2ccccc12 [Example 4] , thanks.
51 to 75%

* * *

Each item that follows carries a reported inhibition at 10 µM.
Test system: NFAT
protocol description: NFAT activation assay (luciferase reporter, PMA and ionomycin)
Assay type: cell-based
run conditions: Homo sapiens; 10 μM compound; Jurkat cells; 15 nM PMA and 0.5 μM ionomycin; 18 hours; read-out: Activity 10 μM (% inhibition of NFAT luciferase luminescence)

INSERT INTO measurements (molecule, measured_property, observed) VALUES
  ('Cc1cnccc1NC(=O)c1ccn(CC2CC2)n1 [Example 19]', 'inhibition at 10 µM', '51 to 75%'),
  ('Cc1cnccc1NC(=O)c1nn(CC2CC2)c2c1CCC2 [Example 41]', 'inhibition at 10 µM', '51 to 75%'),
  ('O=C(Nc1ccncc1F)c1nn(CC2CC2)c2ccc(F)cc12 [Example 37]', 'inhibition at 10 µM', '> 75%'),
  ('O=C(Nc1ccncc1F)c1cn(CC2CCC2)c2ccccc12 [Example 8]', 'inhibition at 10 µM', '> 75%'),
  ('Cc1cnccc1NC(=O)c1nn(CC2CC2)c2c1CCCC2 [Example 42]', 'inhibition at 10 µM', '> 75%'),
  ('Cc1c(C(=O)Nc2ccncc2F)c2ccccc2n1CC1CC1 [Example 43]', 'inhibition at 10 µM', '> 75%');

Reported inhibition at 10 µM, molecule Cc1cnccc1NC(=O)c1cn(CC2CCC2)c2ccccc12 [Example 9] : ____
> 75%

What value of measured inhibition at 10 µM is listed for O=C(Nc1c(F)cccc1F)c1nn(CC2CC2)c2c1CCCC2 [Example 26] ?
51 to 75%

# get_value(readout='inhibition at 10 µM', item= O=C(Nc1ccncc1F)c1nn(CC2CC2)c2ncccc12 [Example 31] )
51 to 75%

* * *

System: NFAT
protocol description: NFAT activation assay (luciferase reporter, PMA and ionomycin)
Format: cell-based
run conditions: Homo sapiens; 10 μM compound; Jurkat cells; 15 nM PMA and 0.5 μM ionomycin; 18 hours; read-out: Activity 10 μM (% inhibition of NFAT luciferase luminescence)
inhibition at 10 µM overview

Consider the following illustrative entries.
INSERT INTO measurements (smiles_entry, observed) VALUES
  ('O=C(Nc1ccn(CC2CC2)n1)c1ccncc1F', '< 25%'),
  ('O=C(Nc1ccncc1F)c1nn(CC2CC2)c2c1CCC2', '> 75%'),
  ('O=C(Nc1c(F)cncc1F)c1ccn(CC2CC2)n1', '< 25%'),
  ('O=C(Nc1ccncc1F)c1nn(CC2CCC2)c2c1CCCC2', '> 75%');

// inhibition at 10 µM lookup, key: O=C(Nc1ccncc1F)c1nn(CC2CC2)c2cc(F)ccc12
> 75%

* * *

Tested on: NFAT
protocol description: NFAT activation assay (luciferase reporter, PMA and ionomycin)
Format: cell-based
run conditions: Homo sapiens; 10 μM compound; Jurkat cells; 15 nM PMA and 0.5 μM ionomycin; 18 hours; read-out: Activity 10 μM (% inhibition of NFAT luciferase luminescence)
measured property: inhibition at 10 µM

INSERT INTO results (smiles_entry, observed) VALUES
  ('Cc1cnccc1NC(=O)c1nn(CC2CC2)c2ccccc12', '> 75%'),
  ('O=C(Nc1ccncc1F)c1cn(CC2CC2)c2cnccc12', '< 25%'),
  ('Cc1cnccc1NC(=O)c1nn(CC2CCC2)c2ccccc12', '> 75%'),
  ('Cc1cnccc1NC(=O)c1nn(CC2CCC2)c2c1CCCC2', '> 75%'),
  ('O=C(Nc1ccncc1F)c1cn(CC2CC2)c2cccnc12', '26 to 50%');

Here is the next item to consider.
Form: Entry = O=C(Nc1ccncc1F)c1cn(CC2COC2)c2ccccc12 | System = NFAT | inhibition at 10 µM = ____
< 25%

* * *

System: Rat mast cells (RBL-2H3 cells)
protocol description: Calcium influx assay (Fluo-4NW, thapsigargin store depletion, Ca2+ re-addition)
Type: cell-based
run conditions: 1 μM compound, control = DMSO, read-out: Fluo-4NW fluorescence (Ca2+ influx), % of control
This listing pairs compounds with measured activity at 1 µM.
I only need the number, in %, no unit after it.

Answered cases to consult:
INSERT INTO measurements (smiles_entry, unit, observed) VALUES
  ('O=C(Nc1c(F)cccc1Cl)c1cn(CC2CC2)c2ccccc12', '%', 46),
  ('Cc1cnccc1NC(=O)c1cn(CC2CC2)c2ccccc12', '%', 61),
  ('O=C(Nc1c(F)cncc1F)c1cn(CC2CCC2)c2ccccc12', '%', 85);

# next compound below
Return reported activity at 1 µM; argument: O=C(Nc1c(F)cncc1F)c1cn(CC2CC2)c2ccccc12
66

* * *

Test system: Rat mast cells (RBL-2H3 cells)
protocol description: Calcium influx assay (Fluo-4NW, thapsigargin store depletion, Ca2+ re-addition)
Type: cell-based
run conditions: 10 μM compound, control = DMSO, read-out: Fluo-4NW fluorescence (Ca2+ influx), % of control
Listed below: activity at 10 µM values for each entry.
Answer with the number, then the unit.

Guide cases for activity at 10 µM, answers given:
INSERT INTO assay_data (smiles_entry, observed) VALUES
  ('Cc1cnccc1NC(=O)c1cn(CC2CC2)c2ccccc12', '44%'),
  ('O=C(Nc1c(F)cncc1F)c1cn(CC2CCC2)c2ccccc12', '80%');

Looking for the measured activity at 10 µM of O=C(Nc1c(F)cccc1F)c1cn(CC2CC2)c2ccccc12 , can you help?
42%

For O=C(Nc1ccncc1F)c1cn(CC2CCC2)c2ccccc12 , what is its reported activity at 10 µM?
25%

GET /values?readout=activity at 10 µM&item= Cc1cnccc1NC(=O)c1cn(CC2CCC2)c2ccccc12
65%

* * *

Tested on: NFAT
protocol description: NFAT activation assay (luciferase reporter, PMA and ionomycin)
Format: cell-based
run conditions: Homo sapiens; 10 μM compound; Jurkat cells; 15 nM PMA and 0.5 μM ionomycin; 18 hours; read-out: Activity 10 μM (% inhibition of NFAT luciferase luminescence)
Measured inhibition at 10 µM accompanies every entry in the list below.

INSERT INTO assay_data (compound, observed) VALUES
  ('Cc1ccc2c(c1)c(C(=O)Nc1ccncc1F)nn2CC1CC1 [Example 34]', '> 75%'),
  ('O=C(Nc1c(F)cccc1F)c1ccn(CC2CC2)n1 [Example 21]', '< 25%'),
  ('O=C(Nc1ccncc1F)c1ccn(CC2CC2)n1 [Example 20]', '51 to 75%');

Pending compound:
Which value of inhibition at 10 µM has been reported for O=C(Nc1ccn(CC2CC2)n1)c1c(F)cncc1F [Example 27] in the records?
26 to 50%

* * *

Below, each of the compounds is paired with its reported activity at 1 µM value.
Tested on: Rat mast cells (RBL-2H3 cells)
protocol description: Calcium influx assay (Fluo-4NW, thapsigargin store depletion, Ca2+ re-addition)
Format: cell-based
run conditions: 1 μM compound, control = DMSO, read-out: Fluo-4NW fluorescence (Ca2+ influx), % of control
In your response, put the unit directly after the numeric value.

Please review the entries below; each comes with its answer.
INSERT INTO assay_data (smiles_entry, measured_property, observed) VALUES
  ('O=C(Nc1c(F)cccc1F)c1cn(CC2CC2)c2ccccc12', 'activity at 1 µM', '75%'),
  ('O=C(Nc1ccncc1F)c1cn(CC2CC2)c2ccccc12', 'activity at 1 µM', '63%'),
  ('Cc1cnccc1NC(=O)c1cn(CC2CCC2)c2ccccc12', 'activity at 1 µM', '81%');

Attention now shifts to the item below.
Need activity at 1 µM of O=C(Nc1ccncc1F)c1cn(CC2CCC2)c2ccccc12 , thanks.
50%

Data origin: patent US12459938B2
